# Tested on: VCaP
# Assay overview: Anti-proliferative activity on VCaP in complete medium
# Assay type: cell-based
# Test conditions: Homo sapiens, 216 h, Cell-Titer-Glow, reading after 9 days
# Experimental: 3. […] The cells are incubated for 144 h at 37° C., 5% CO2. • Reading: After incubation for […], cell proliferation was determined by Cell-Titer-Glow (CTG) Luminescent Cell Viability Assay • Results: The experiments are carried out in duplicate and the best compounds are tested twice. […]
Value kind: pIC50
Note on pIC50: it is the negative log10 of concentration, concentration in mol/L.

- CC1(C)C(=O)N(c2ccc(C#N)c(C(F)(F)F)c2)C(=O)N1C/C=C\CN1C(=O)N(c2ccc(S(C)(=O)=O)c(C(F)(F)F)c2)C(=O)C1(C)C: 6.26

Here is another compound to look at.
# input Please look up its pIC50: CC1(C)C(=O)N(c2ccc(S(C)(=O)=O)c(C(F)(F)F)c2)C(=O)N1C/C=C\CN1C(=O)N(c2cnc(C#N)c(C(F)(F)F)c2)C(=O)C1(C)C
# output 5.98

These entries and their values trace back to patent US9676752B2.
